meta.source: ChEMBL document CHEMBL5291721

Measured AC50 values are reported for all entries that follow.
Protein target, amino acids: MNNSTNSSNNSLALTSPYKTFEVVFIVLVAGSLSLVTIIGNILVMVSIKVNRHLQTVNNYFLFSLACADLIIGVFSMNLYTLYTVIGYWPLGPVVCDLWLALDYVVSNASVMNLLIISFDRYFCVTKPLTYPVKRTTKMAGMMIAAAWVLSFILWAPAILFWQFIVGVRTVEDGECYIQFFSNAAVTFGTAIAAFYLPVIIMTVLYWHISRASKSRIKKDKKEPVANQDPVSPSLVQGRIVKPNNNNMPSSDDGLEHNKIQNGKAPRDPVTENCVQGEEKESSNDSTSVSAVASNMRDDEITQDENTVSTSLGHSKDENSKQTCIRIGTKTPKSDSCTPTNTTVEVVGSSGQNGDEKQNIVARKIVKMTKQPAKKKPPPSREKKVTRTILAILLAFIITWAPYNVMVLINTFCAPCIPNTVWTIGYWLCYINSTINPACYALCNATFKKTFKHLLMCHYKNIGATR

{"columns": ["Compound", "AC50"],
 "data": [
  ["C=CCSCC1Nc2cc(Cl)c(S(N)(=O)=O)cc2S(=O)(=O)N1 (stereo unspecified) [ALTHIAZIDE]", "> 30 µM"],
  ["CCN(CC)C(=S)S", "> 30 µM"],
  ["CCCC(CCC)C(=O)O", "> 30 µM"],
  ["Cc1cc(NC(=O)C2=C(O)c3ccccc3S(=O)(=O)N2C)no1", "> 30 µM"],
  ["N[C@@H](CS)C(=O)O", "> 30 µM"],
  ["OC[C@H]1O[C@@H](c2ccc(Cl)c(Cc3ccc(O[C@H]4CCOC4)cc3)c2)[C@H](O)[C@@H](O)[C@@H]1O", "> 30 µM"],
  ["CC(C)(C)NC[C@H](O)COc1cccc2c1CCCC2=O", "> 30 µM"],
  ["CN1CCCCC1CCN1c2ccccc2Sc2ccc([S+](C)[O-])cc21 (stereo unspecified)", "0.153 µM"],
  ["Cc1cc(N)c2ccccc2[n+]1CCCCCCCCCC[n+]1c(C)cc(N)c2ccccc21", "0.0497 µM"],
  ["N#Cc1ccc2c(c1)N(CCCN1CCC(O)CC1)c1ccccc1S2", "5.87 µM"],
  ["[H]/N=C(\\N/C(=N/[H])Nc1ccc(Cl)cc1)NC(C)C", "> 30 µM"]
]}

* * *

// endpoint AC50 / system Glucocorticoid receptor (Homo sapiens); also: assay procedure not described here

{"columns": ["Compound", "AC50"],
 "data": [
  ["CCCCC1C(=O)N(c2ccccc2)N(c2ccccc2)C1=O [PHENYLBUTAZONE]", "> 10 µM"],
  ["C=C1/C(=C\\C=C2/CCC[C@]3(C)[C@@H]([C@H](C)/C=C/[C@@H](O)C4CC4)CC[C@@H]23)C[C@@H](O)C[C@@H]1O [CALCIPOTRIENE]", "> 30 µM"],
  ["COc1cc(N)c(Cl)cc1C(=O)NC1CCN(Cc2ccccc2)CC1 [CLEBOPRIDE]", "> 30 µM"],
  ["CN(C)CC[C@@H](c1ccc(Cl)cc1)c1ccccn1 [DEXCHLORPHENIRAMINE]", "> 30 µM"],
  ["O=C(O)c1ccccc1Nc1cc(Cl)ccc1C(=O)O [LOBENZARIT]", "> 30 µM"],
  ["CCC(C)C1(CC)C(=O)NC(=O)NC1=O (stereo not drawn) [BUTABARBITAL]", "> 30 µM"],
  ["C[C@]12C=CC(=O)N[C@@H]1CC[C@@H]1[C@@H]2CC[C@]2(C)[C@@H](C(=O)Nc3cc(C(F)(F)F)ccc3C(F)(F)F)CC[C@@H]12 [DUTASTERIDE]", "> 10 µM"],
  ["Clc1ccc2c(N3CCN(CCCN4CCN(c5ccnc6cc(Cl)ccc56)CC4)CC3)ccnc2c1 [PIPERAQUINE]", "> 30 µM"]
]}

* * *

target: D(1A) dopamine receptor (Homo sapiens, UniProt P21728); assay type: functional, cell-based; also: assay procedure not described here
Sequence (P21728 whole entry): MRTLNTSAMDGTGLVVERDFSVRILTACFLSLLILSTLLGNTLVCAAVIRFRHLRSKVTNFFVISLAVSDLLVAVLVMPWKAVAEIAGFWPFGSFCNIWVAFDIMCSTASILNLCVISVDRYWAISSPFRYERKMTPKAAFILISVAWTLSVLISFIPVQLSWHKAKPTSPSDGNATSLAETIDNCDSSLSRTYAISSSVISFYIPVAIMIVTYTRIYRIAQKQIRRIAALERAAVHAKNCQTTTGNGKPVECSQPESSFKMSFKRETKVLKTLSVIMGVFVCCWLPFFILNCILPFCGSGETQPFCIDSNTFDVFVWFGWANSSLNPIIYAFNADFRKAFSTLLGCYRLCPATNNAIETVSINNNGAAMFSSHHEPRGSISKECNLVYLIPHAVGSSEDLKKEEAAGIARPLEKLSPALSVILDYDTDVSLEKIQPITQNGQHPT
Parameter Measured: AC50

{"columns": ["Molecule", "Value"],
 "data": [
  ["CCN(CC)CCN1C(=O)CN=C(c2ccccc2F)c2cc(Cl)ccc21", "> 30 µM"],
  ["C=C[C@H]1C[N@@]2CC[C@H]1C[C@@H]2[C@@H](O)c1ccnc2ccc(OC)cc12", "> 10 µM"],
  ["CC(=O)[C@]1(O)Cc2c(O)c3c(c(O)c2[C@@H](O[C@H]2C[C@H](N)[C@H](O)[C@H](C)O2)C1)C(=O)c1ccccc1C3=O", "> 30 µM"],
  ["CC(N)C(O)c1ccccc1 (stereo not drawn)", "> 10 µM"],
  ["Oc1ccc2c(c1)CC[C@H](c1ccccc1)[C@@H]2c1ccc(OCCN2CCCC2)cc1", "> 30 µM"],
  ["C[C@H](CCC(=O)O)[C@H]1CC[C@H]2[C@@H]3[C@@H](O)C[C@@H]4C[C@H](O)CC[C@]4(C)[C@H]3CC[C@]12C", "> 30 µM"],
  ["CN(CC1(C)CCCO1)S(=O)(=O)c1ccc(Cl)c(S(N)(=O)=O)c1 (stereo not drawn) [MEFRUSIDE]", "> 30 µM"],
  ["CC12CC3CC(C)(C1)CC(N)(C3)C2 [MEMANTINE]", "> 10 µM"]
]}

* * *

Data export: AC50 values recorded with Mu-type opioid receptor (Homo sapiens, UniProt P35372).
Sequence (P35372 whole entry): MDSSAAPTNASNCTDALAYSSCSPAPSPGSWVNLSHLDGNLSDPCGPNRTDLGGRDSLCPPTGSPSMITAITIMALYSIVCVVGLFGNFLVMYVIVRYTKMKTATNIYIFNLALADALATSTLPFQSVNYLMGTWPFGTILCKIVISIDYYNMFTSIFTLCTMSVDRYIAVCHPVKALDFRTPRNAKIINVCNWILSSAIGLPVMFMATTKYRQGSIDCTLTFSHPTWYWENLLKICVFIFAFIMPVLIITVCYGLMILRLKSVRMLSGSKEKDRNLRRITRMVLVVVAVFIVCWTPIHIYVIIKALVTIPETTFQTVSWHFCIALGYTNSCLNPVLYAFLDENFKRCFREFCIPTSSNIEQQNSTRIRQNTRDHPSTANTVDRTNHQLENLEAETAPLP
Parameter Measured: AC50

{"columns": ["Compound", "Parameter Measured", "Value"],
 "data": [
  ["CCN1CCN(Cc2ccc(Nc3ncc(F)c(-c4cc(F)c5nc(C)n(C(C)C)c5c4)n3)nc2)CC1 [ABEMACICLIB]", "AC50", "> 30 µM"],
  ["Nc1cc(-c2ccncc2)c[nH]c1=O [INAMRINONE]", "AC50", "> 30 µM"],
  ["Cc1ncc2n1-c1ccc(Cl)cc1C(c1ccccc1F)=NC2 [MIDAZOLAM]", "AC50", "> 30 µM"],
  ["CC1OC2(CS1)CN1CCC2CC1 (stereo not given) [CEVIMELINE]", "AC50", "> 30 µM"],
  ["CCCC(CCC)C(N)=O [VALPROMIDE]", "AC50", "> 30 µM"],
  ["CC(C)Cc1ccc(C(C)C(=O)O)cc1 (stereo not given) [IBUPROFEN]", "AC50", "> 30 µM"],
  ["OC1(c2ccc(Cl)cc2)c2ccccc2C2=NCCN21 (stereo not given) [MAZINDOL]", "AC50", "> 10 µM"],
  ["COc1cc2nccc(Oc3ccc(NC(=O)C4(C(=O)Nc5ccc(F)cc5)CC4)cc3)c2cc1OC [CABOZANTINIB]", "AC50", "> 30 µM"],
  ["CCCN(CCC)C(=O)Cc1c(-c2ccc(Cl)cc2)nc2ccc(Cl)cn12 [ALPIDEM]", "AC50", "> 10 µM"],
  ["C=C[C@H]1C[N@@]2CC[C@H]1C[C@@H]2[C@@H](O)c1ccnc2ccc(OC)cc12 [QUINIDINE]", "AC50", "6.2 µM"],
  ["C[C@@H](NCCCc1cccc(C(F)(F)F)c1)c1cccc2ccccc12", "AC50", "2.5 µM"],
  ["CC(C(=O)O)c1ccc(-c2ccccc2)c(F)c1 (stereo not given) [FLURBIPROFEN]", "AC50", "> 30 µM"],
  ["O=C1CN=C(c2ccccc2)c2cc([N+](=O)[O-])ccc2N1 [NITRAZEPAM]", "AC50", "> 30 µM"],
  ["CN1CCN(C2=Nc3ccccc3Oc3ccc(Cl)cc32)CC1 [LOXAPINE]", "AC50", "13 µM"],
  ["COc1cc2nc(N3CCN(C(=O)C4CCCO4)CC3)nc(N)c2cc1OC (stereo not given) [TERAZOSIN]", "AC50", "3 µM"],
  ["COc1ccccc1Oc1c(NS(=O)(=O)c2ccc(C(C)(C)C)cc2)nc(-c2ncccn2)nc1OCCO [BOSENTAN]", "AC50", "> 30 µM"],
  ["CC(N)C12CC3CC(CC(C3)C1)C2 (stereo not given) [RIMANTADINE]", "AC50", "> 30 µM"],
  ["O=C1CCc2cc(OCCCCc3nnnn3C3CCCCC3)ccc2N1 [CILOSTAZOL]", "AC50", "> 30 µM"],
  ["CCC(=O)O[C@H]1CC[C@H]2[C@@H]3CCC4=CC(=O)CC[C@]4(C)[C@H]3CC[C@]12C [TESTOSTERONE PROPIONATE]", "AC50", "> 30 µM"],
  ["CCOC(=O)C1=C(C)NC(C)=C(C(=O)OC)C1c1cccc([N+](=O)[O-])c1 (stereo not given) [NITRENDIPINE]", "AC50", "> 30 µM"],
  ["CCC1(c2ccccc2)CCC(=O)NC1=O (stereo not given) [GLUTETHIMIDE]", "AC50", "> 30 µM"],
  ["OCc1cc(C(O)CNCCCCCCOCCCCc2ccccc2)ccc1O (stereo not given) [SALMETEROL]", "AC50", "> 30 µM"],
  ["CCCCC1C(=O)N(c2ccccc2)N(c2ccccc2)C1=O [PHENYLBUTAZONE]", "AC50", "> 30 µM"],
  ["CC(=O)OCC(=O)[C@@]1(O)[C@H](C)C[C@H]2[C@@H]3CCC4=CC(=O)C=C[C@]4(C)[C@@]3(F)[C@@H](O)C[C@@]21C [DEXAMETHASONE ACETATE]", "AC50", "> 30 µM"],
  ["O=C1CN(/N=C/c2ccc(-c3ccc([N+](=O)[O-])cc3)o2)C(O)=N1 [DANTROLENE]", "AC50", "> 30 µM"],
  ["CSCC[C@H](NC(=O)[C@H](Cc1c[nH]c2ccccc12)NC(=O)CCNC(=O)OC(C)(C)C)C(=O)N[C@@H](CC(=O)O)C(=O)N[C@@H](Cc1ccccc1)C(N)=O [PENTAGASTRIN]", "AC50", "> 30 µM"],
  ["CC(CCc1ccc(O)cc1)NCCc1ccc(O)c(O)c1 (stereo not given) [DOBUTAMINE]", "AC50", "1.7 µM"],
  ["C[C@H](Cc1ccc(O)c(O)c1)[C@@H](C)Cc1ccc(O)c(O)c1 [MASOPROCOL]", "AC50", "> 30 µM"],
  ["CN1C(C(=O)Nc2ccccn2)=C(O)c2ccccc2S1(=O)=O [PIROXICAM]", "AC50", "> 30 µM"],
  ["CN1CCC(=C2c3ccccc3CCc3cccnc32)CC1 [AZATADINE]", "AC50", "> 30 µM"],
  ["C=CC[C@@H]1/C=C(\\C)C[C@H](C)C[C@H](OC)[C@H]2O[C@@](O)(C(=O)C(=O)N3CCCC[C@H]3C(=O)O[C@H](/C(C)=C/[C@@H]3CC[C@@H](O)[C@H](OC)C3)[C@H](C)[C@@H](O)CC1=O)[C@H](C)C[C@@H]2OC [TACROLIMUS ANHYDROUS]", "AC50", "> 30 µM"],
  ["C[C@@H](Oc1cc(-c2cnn(C3CCNCC3)c2)cnc1N)c1c(Cl)ccc(F)c1Cl [CRIZOTINIB]", "AC50", "> 30 µM"],
  ["CCN(CC)CCN1C(=O)CN=C(c2ccccc2F)c2cc(Cl)ccc21 [FLURAZEPAM]", "AC50", "> 30 µM"],
  ["CC(C)NCC(O)c1ccc(O)c(O)c1 (stereo not given) [ISOPROTERENOL]", "AC50", "> 30 µM"],
  ["CNCc1ccc(-c2[nH]c3cc(F)cc4c3c2CCNC4=O)cc1 [RUCAPARIB]", "AC50", "> 30 µM"]
]}
